- protocol: Drug distribution in CB17:SCID mouse xenografted with human VCaP cells assessed as liver to plasma ratio at 20 mg/kg, po measured at 1 hrs by LCMS analysis
- Format: ADME, organism-based

molecule: CN(c1ccc(C#N)c(Cl)c1)[C@H]1CC[C@H](NC(=O)c2ccc(N3CCN(C4CN(c5ccc6c(c5)C(=O)N(C5CCC(=O)NC5=O)C6=O)C4)CC3)cc2)CC1 (stereo partly specified)
Kp at 1 h: 37.7

###

- Test system: VCaP
- protocol: Growth inhibition of human VCaP cells assessed as cell viability by WST-8 assay
- Type: functional, cell-based
pIC50: −log10 of the molar value.

compound: N#Cc1ccc(N[C@H]2CC[C@H](NC(=O)c3ccc(N4CCC(N5CCN(c6ccc7c(c6)C(=O)N(C6CCC(=O)NC6=O)C7=O)CC5)CC4)cc3)CC2)cc1Cl (stereo partly specified)
relation.operator: =
pIC50: 7.78
--
compound: N#Cc1ccc(O[C@@H]2CCCN(C(=O)c3ccc(N4CCC(N5CCN(c6ccc7c(c6)C(=O)N(C6CCC(=O)NC6=O)C7=O)CC5)CC4)cc3)CC2)cc1Cl (stereo partly specified)
relation.operator: <
pIC50: 6.00
--
compound: N#Cc1ccc(O[C@H]2CC[C@H](NC(=O)c3ccc(N4CCN(CC5CCN(c6ccc7c(c6)C(=O)N(C6CCC(=O)NC6=O)C7=O)CC5)CC4)cc3)CC2)cc1Cl (stereo partly specified)
relation.operator: =
pIC50: 8.57
--
compound: CN1CCN(c2ccc(C(=O)N[C@H]3CC[C@H](N(C)c4ccc(C#N)c(Cl)c4)CC3)cc2)CC1
relation.operator: =
pIC50: 7.21
--
compound: N#Cc1ccc(O[C@H]2CC[C@H](NC(=O)c3ccc(N4CCC(N5CCN(c6ccc7c(c6)C(=O)N(C6CCC(=O)NC6=O)C7=O)CC5)CC4)cc3)C2)cc1Cl (stereo partly specified)
relation.operator: <
pIC50: 6.00
--
compound: CC1(C)C(=O)N(c2ccc(C#N)c(C(F)(F)F)c2)C(=S)N1c1ccc(C(=O)N2CCN(C3CCN(c4ccc5c(c4)C(=O)N(C4CCC(=O)NC4=O)C5=O)CC3)CC2)c(F)c1 (stereo unspecified)
relation.operator: <
pIC50: 6.00
